PROTOCOL: physchem
PROTOCOL CONDITIONS: lactic acid/ethanol, organic solvent or mixture
MEASURE NAME: solubility

What value of solubility has been recorded for this entry: CCCCCCCCCCCCCCC[C@H](O)[C@@H](N)CO [Safingol, (2S,3S)-2-amino-1,3-octadecanediol]
~20 mg/mL

* * *

PROTOCOL: physchem
PROTOCOL CONDITIONS: lactic acid/WFI, aqueous buffer
MEASURE NAME: solubility

Given CCCCCCCCCCCCCCC[C@H](O)[C@@H](N)CO , state its recorded solubility.
> 10000 µg/mL

* * *

PROTOCOL: physchem
PROTOCOL CONDITIONS: propylene glycol, organic solvent or mixture
MEASURE NAME: solubility

So what's the measured solubility for this one? CCCCCCCCCCCCCCC[C@H](O)[C@@H](N)CO
1060 to 1350 µg/mL

* * *

PROTOCOL: physchem
PROTOCOL CONDITIONS: lactic acid in WFI with 5 mg/mL mannitol, aqueous buffer
MEASURE NAME: solubility (mg/mL)
Hi! Could you send only the number? It should be in mg/mL, unit omitted.

Quick one: solubility of CCCCCCCCCCCCCCC[C@H](O)[C@@H](N)CO [Safingol, (2S,3S)-2-amino-1,3-octadecanediol] ?
10

* * *

PROTOCOL: physchem
PROTOCOL CONDITIONS: propionic acid/WFI, aqueous buffer
MEASURE NAME: solubility

So what does the record say about solubility for CCCCCCCCCCCCCCC[C@H](O)[C@@H](N)CO [Safingol, (2S,3S)-2-amino-1,3-octadecanediol] ?
≥ 5000 µg/mL

* * *

PROTOCOL: physchem
PROTOCOL CONDITIONS: 50:50 ethanol:WFI with lactic acid, aqueous with cosolvent or surfactant or cyclodextrin
MEASURE NAME: solubility

// lookup solubility for CCCCCCCCCCCCCCC[C@H](O)[C@@H](N)CO [Safingol, (2S,3S)-2-amino-1,3-octadecanediol]
~50 mg/mL

Where do the numbers come from? From patent US7476692B2.
